- protocol_text: Probe fluorescence ratio response to linolenic acid relative to ADIFAB2
- Type: binding
- experimental_conditions: response relative to ADIFAB2
measure_name: DR/DR LNA
Answer with the value's number alone.

Entry 82V1, 72A (protein, listed as Rattus norvegicus, PEPTIDE (1)...(131) wild-type rat intestinal fatty acid binding protein) AFDGTWKVDRNENYEKFMEKMGINVVKRKLGAHDNLKLTITQEGNKFTVKESSNFRNIDVVFELGVDFAYSAADGTELTGTVTMEGNKLVGKFKRVDNGKELIAVREISGNELIQTYTYEGVEAKRIFKKE : reported DR/DR LNA = ?
0.76

Returns the measured DR/DR LNA for the input molecule. Input: 72V (protein, listed as Rattus norvegicus, PEPTIDE (1)...(131) wild-type rat intestinal fatty acid binding protein) AFDGTWKVDRNENYEKFMEKMGINVVKRKLGAHDNLKLTITQEGNKFTVKESSNFRNIDVVFELGVDFAYSVADGTELTGTWTMEGNKLVGKFKRVDNGKELIAVREISGNELIQTYTYEGVEAKRIFKKE
0.15

Hey, just so you know, these numbers are from patent US20060257938A1.
